# target_or_test_system: BACE2 (Rattus norvegicus)
# Construct: endogenous cellular BACE2 in the Ins1e rat cell line; endogenous in cells
# procedure_text: Assay for BACE inhibition by measuring cellular TMEM27 cleavage (INS-TMEM27 cells, ELISA of shed TMEM27)
# condition: inhibition of human TMEM27 cleavage by endogenous cellular BACE2 in Ins1e rat cell line; ELISA of culture medium
pIC50: −log10 of the molar value.
quantity: pIC50

molecule	quantity	numeric_readout
C[C@@]1(c2cc(NC(=O)c3ncc(Cl)cc3Cl)ccc2F)CCOC(N)=N1 [Example 1]	pIC50	8.40
C[C@]1(c2cc(NC(=O)c3ccc(OC(F)F)cn3)ccc2F)N=C(N)OCC12CC2 [Example 42]	pIC50	6.68

P = C[C@@]1(c2cc(NC(=O)c3cc(Cl)ccn3)ccc2F)CCOC(N)=N1 [Example 9]
Q = C[C@@]1(c2cc(NC(=O)c3ncccc3F)ccc2F)CCOC(N)=N1 [Example 6]
Q: Which item exceeds the other in pIC50, P or Q ? Identify your pick by its label.
A: Q

1 = C[C@]1(c2cc(NC(=O)c3ccc(C#N)cn3)ccc2F)N=C(N)OCC12CC2 [Example 41]
2 = C[C@]1(c2cc(NC(=O)C3CC3(F)F)ccc2F)N=C(N)OCC12CC2 (mixture of isomers) [Example 55]
Q: Which item exceeds the other in pIC50, 1 or 2 ? Identify your pick by its label.
A: 1

---

# target_or_test_system: BACE2 (Rattus norvegicus, UniProt Q6IE75)
# Construct: endogenous cellular BACE2 in the Ins1e rat cell line; endogenous in cells
# Sequence (Q6IE75 63-514): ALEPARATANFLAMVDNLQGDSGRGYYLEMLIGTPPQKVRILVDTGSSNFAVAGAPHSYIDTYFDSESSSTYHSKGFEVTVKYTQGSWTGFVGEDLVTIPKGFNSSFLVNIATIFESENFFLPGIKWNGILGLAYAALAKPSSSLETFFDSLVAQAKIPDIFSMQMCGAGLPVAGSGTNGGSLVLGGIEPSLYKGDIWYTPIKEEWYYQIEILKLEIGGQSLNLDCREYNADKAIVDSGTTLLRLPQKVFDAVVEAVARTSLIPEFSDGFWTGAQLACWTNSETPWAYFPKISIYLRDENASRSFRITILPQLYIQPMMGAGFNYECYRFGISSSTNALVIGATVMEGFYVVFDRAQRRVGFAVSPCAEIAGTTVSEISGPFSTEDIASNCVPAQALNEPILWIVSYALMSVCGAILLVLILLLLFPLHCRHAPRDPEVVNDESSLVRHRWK
# procedure_text: Assay for BACE inhibition by measuring cellular TMEM27 cleavage (INS-TMEM27 cells, ELISA of shed TMEM27)
# condition: inhibition of human TMEM27 cleavage by endogenous cellular BACE2 in Ins1e rat cell line; ELISA of culture medium
pIC50: −log10 of the molar value.
quantity: pIC50

smiles	pIC50
C[C@@]1(c2cc(NC(=O)c3ncccc3OCC(F)(F)F)ccc2F)CCOC(N)=N1	6.84

P = C[C@]1(c2cc(NC(=O)c3ncc(Cl)cn3)ccc2F)N=C(N)OCC12CC2
Q = CC[C@@]1(c2cc(NC(=O)c3ccc(C)s3)ccc2F)CCOC(N)=N1
Q: Looking only at measured pIC50, which entry is lower, P or Q ? Identify your pick by its label.
A: Q

---

# target_or_test_system: BACE2 (Rattus norvegicus)
# Construct: endogenous cellular BACE2 in the Ins1e rat cell line; endogenous in cells
# procedure_text: Assay for BACE inhibition by measuring cellular TMEM27 cleavage (INS-TMEM27 cells, ELISA of shed TMEM27)
# condition: inhibition of human TMEM27 cleavage by endogenous cellular BACE2 in Ins1e rat cell line; ELISA of culture medium
quantity: IC50 (nM)

molecule	target_or_test_system	measurement_units	numeric_readout
C[C@@]1(c2cc(NC(=O)c3ccc(Cl)s3)ccc2F)CCOC(N)=N1 [Example 10]	BACE2 (Rattus norvegicus)	nM	915
C[C@]1(c2cc(NC(=O)c3ncc(F)cc3Cl)ccc2F)N=C(N)OCC12CC2 [Example 52]	BACE2 (Rattus norvegicus)	nM	16
Cc1nc(C(=O)Nc2ccc(F)c([C@]3(C)CCOC(N)=N3)c2)cs1 [Example 28]	BACE2 (Rattus norvegicus)	nM	4
CC[C@@]1(c2cc(NC(=O)c3coc(C)n3)ccc2F)CCOC(N)=N1 [Example 24]	BACE2 (Rattus norvegicus)	nM	1
CC[C@@]1(c2cc(NC(=O)c3ncc(Cl)cc3Cl)ccc2F)CCOC(N)=N1 [Example 22]	BACE2 (Rattus norvegicus)	nM	7
COc1ccc(C(=O)Nc2ccc(F)c([C@]3(C)CCOC(N)=N3)c2)nc1 [Example 30]	BACE2 (Rattus norvegicus)	nM	12
C[C@@]1(c2cc(NC(=O)c3ncccc3-c3ccccc3)ccc2F)CCOC(N)=N1 [Example 12]	BACE2 (Rattus norvegicus)	nM	34
C[C@]1(c2cc(NC(=O)c3ccccn3)ccc2F)N=C(N)OCC12CC2 [Example 43]	BACE2 (Rattus norvegicus)	nM	18

1 = C[C@]1(c2cc(NC(=O)c3ccc(Cl)cn3)ccc2F)N=C(N)OCC12CC2 [Example 36]
2 = C[C@@]1(c2cc(NC(=O)c3ccc(C(F)(F)F)cn3)ccc2F)CCOC(N)=N1 [Example 5]
3 = Cc1ccc(C(=O)Nc2ccc(F)c([C@]3(C)CCOC(N)=N3)c2)nc1 [Example 15]
4 = CC[C@@]1(c2cc(NC(=O)c3ccc(Cl)s3)ccc2F)CCOC(N)=N1 [Example 21]
Q: Arrange items by their IC50 values in increasing order. Answer by listing the labels in the order asked for.
A: 3, 1, 2, 4
(3: 4.5 nM, 1: 16 nM, 2: 89 nM, 4: 240 nM)
